Each recorded value in this set is attributed to paper PMC12433258.

molecular target: T1, PSB‐I^143–238 construct (peptide‐substrate–binding domain of the α‐I subunit of human collagen prolyl … (human, UniProt P13674 160-255)); assay: ITC; 3 mM peptide titrated into 50 μM PSB‐I^143–238 in the cell; 20 mM Bis‐Tris, 100 mM glycine, pH 6.8; 25°C; one‐set‐of‐sites model with fixed stoichiometry (n = 1); three measurements; conditions: both partners purified
T1 construct: numbers count on: the mature protein (α-I subunit after cleavage of the signal peptide); Monomer by SEC-MALS; also called PSB‐I construct; PSB‐I domain; source: E. coli Rosetta(DE3)pLysS, pET22b(+), purified (Ni‐NTA, Superdex75 SEC); not shown: Leu-Glu-His6, C-terminal, kept
T1 sequence (P13674 160-255): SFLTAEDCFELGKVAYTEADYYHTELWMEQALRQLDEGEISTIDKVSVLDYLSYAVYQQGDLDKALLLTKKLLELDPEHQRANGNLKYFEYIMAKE
REPORTED_PROPERTY: Kd (µM)

Please review the following examples before continuing.
>>> reported_result("PPGPEGPPG (collagen-like model peptide, 9 residues, free amino and free carboxylate ends; also called PxGP‐peptide; source: synthetic peptide; bought: TAG Copenhagen A/S) [PPG‐PEG‐PPG peptide]")
84.3
>>> reported_result("PPGPRGPPG (collagen-like model peptide, 9 residues, free amino and free carboxylate ends; also called PxGP‐peptide; source: synthetic peptide; bought: TAG Copenhagen A/S) [PPG‐PRG‐PPG peptide]")
37
>>> reported_result("PPPPPPPPP (polyproline peptide of 9 residues, free amino and free carboxylate ends; printed as (Pro)9; also called P9; source: synthetic peptide; bought: TAG Copenhagen A/S) [(Pro)9 peptide]")
80.9

A: PPGPPGPPG (collagen-like model peptide, 9 residues, free amino and free carboxylate ends; also called (PPG)3; source: synthetic peptide; bought: TAG Copenhagen A/S) [PPG‐PPG‐PPG peptide]
B: PPGPAGPPG (collagen-like model peptide, 9 residues, free amino and free carboxylate ends; also called PxGP‐peptide; source: synthetic peptide; bought: TAG Copenhagen A/S) [PPG‐PAG‐PPG peptide]
Task item: Which value of Kd is smaller, the one for A or the one for B ? Respond using the label that marks the chosen record.
Reply: B
(B: 91.3 µM, A: 309 µM)
